# experimental-target: PTPN2 (Homo sapiens)
# Construct: endogenous in cells; host or cells: HEK293T
# Sequence (P17706 1-415): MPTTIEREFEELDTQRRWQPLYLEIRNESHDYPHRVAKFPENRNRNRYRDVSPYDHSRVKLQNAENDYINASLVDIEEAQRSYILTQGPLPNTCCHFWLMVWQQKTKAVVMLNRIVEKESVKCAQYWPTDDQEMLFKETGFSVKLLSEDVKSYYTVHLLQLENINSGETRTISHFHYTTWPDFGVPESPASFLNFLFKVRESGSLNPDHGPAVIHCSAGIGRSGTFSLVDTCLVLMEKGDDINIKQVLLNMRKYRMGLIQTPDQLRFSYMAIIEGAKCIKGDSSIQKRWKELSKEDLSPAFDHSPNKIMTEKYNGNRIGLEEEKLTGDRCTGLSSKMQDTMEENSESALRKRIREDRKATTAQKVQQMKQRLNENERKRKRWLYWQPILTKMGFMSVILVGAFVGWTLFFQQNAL
# run-description: Western blot, PTPN2 degradation in HEK293T cells
# Assay type: cell-based
# measurement-setup: HEK-293T, 48 hours incubation, Western blot
measured-quantity: Dmax (%)

{"columns": ["compound", "Dmax [%]"],
 "data": [
  ["CC1(C)C[C@@H](Nc2cccc(-c3sc(C(=O)O)c(OCC(=O)O)c3Cl)c2)CCN1S(=O)(=O)Cc1cccc(NC(=O)N2CCC(c3ccc4c5c(cccc35)C(=O)N4[C@H]3CCC(=O)NC3=O)CC2)c1 [Ref. Cpd, reference compound]", 96.3],
  ["CC1(C)CC(Nc2cccc(-c3sc(C(=O)O)c(OCC(=O)O)c3Cl)c2)CCN1S(=O)(=O)Cc1ccc2oc(N3CCC(c4ccc5c6c(cccc46)C(=O)N5C4CCC(=O)NC4=O)CC3)nc2c1 (centres unmarked)", 100]
]}

====

# run-description: PK study in SD rats after a single intravenous administration
# Format: in vivo
# measurement-setup: Sprague-Dawley (SD), rat, plasma, 1 mg/kg, 4 h
measured-quantity: concentration at 4 h (ng/mL)

{"columns": ["compound", "measured-quantity", "endpoint-result"],
 "data": [
  ["CC1(C)CC(Nc2cccc(-c3sc(C(=O)O)c(OCC(=O)O)c3Cl)c2)CCN1S(=O)(=O)Cc1ccc2oc(N3CCC(c4ccc5c6c(cccc46)C(=O)N5C4CCC(=O)NC4=O)CC3)nc2c1 (stereo not shown)", "concentration at 4 h", 1000]
]}

(P) O=C(O)COc1c(C(=O)O)sc(-c2cccc(NC3CCN(S(=O)(=O)Cc4ccc5oc(N6CCC(c7ccc8c9c(cccc79)C(=O)N8C7CCC(=O)NC7=O)CC6)nc5c4)C4(CC4)C3)c2)c1Cl (stereo not shown)
(Q) [2H]C([2H])(c1ccc2oc(N3CCC(c4ccc5c6c(cccc46)C(=O)N5C4CCC(=O)NC4=O)CC3)nc2c1)S(=O)(=O)N1CCC(Nc2cccc(-c3sc(C(=O)O)c(OCC(=O)O)c3Cl)c2)CC1(C)C (stereo not shown)
(R) O=C(O)COc1c(C(=O)O)sc(-c2cccc(NC3CCN(S(=O)(=O)Cc4ccc5oc(N6CCC(c7ccc8c9c(cccc79)C(=O)N8C7CCC(=O)NC7=O)CC6)nc5c4)CC3)c2)c1Cl (stereo not shown)
[ask] Order the records by concentration at 4 h, with each subsequent value no larger than the one before. # output: labels, in the requested order
[reply] P, Q, R
